test system: KM20L2 colon; assay: NCI tumour cell line growth inhibition, 48 h
quantity_kind: TGI

# example entries with known answers
COc1nc(N)c(NC(C)=O)c(=O)n1C	> 100 µM
COC(=O)[C@@H]1Cc2c([nH]c3ccccc23)[C@H](c2ccccc2)N1	> 100 µM
O=C(Nc1ccc(Cl)cc1Cl)OC(Cn1cncn1)c1ccc(Cl)cc1Cl (stereo not given)	30.3 µM
CCNC(=O)OCc1c(COC(=O)NCC)c(-c2ccc(Cl)c(Cl)c2)n2c1CCC2	68.3 µM
COC(=O)C1C(=O)O[C@@H](c2cc(OC)c(OC)cc2OC)C1C(=O)OC (mixture of isomers)	> 100 µM

Prompt: Reported TGI for CSCSCC(CO)NC(=O)/C(C)=C\c1c(C)[nH]c(=O)[nH]c1=O (stereo not given) : what is it?
Response: > 250 µM

Prompt: // query: COc1c(-c2ccccc2)nc2ccc(Oc3ccccc3)nn12
Response: > 100 µM

Prompt: // query: CCOc1ccccc1N=Nc1c(-c2ccccc2)nn(C(=O)CC(=O)Nc2cccc(C)c2)c1-c1ccccc1
Response: > 100 µM

Prompt: // query: CC1CCC2CC(=O)OC([C@@H]3C(=O)O[C@@H](C4=CCCC4)C4C(C)CCC43)C12 (stereo not given in full)
Response: > 100 µM

Prompt: // query: CC(C)C1NC(=O)CC(c2ccccc2)N(N=O)C1c1ccccc1 (stereo not given)
Response: > 100 µM
